Experiment: Testing the stability of a TCO compound under chemical conditions (HPLC-MS/PDA, GC-MS)
Type: physicochemical
Conditions: I) in acetonitrile with 1 v % of formic acid at 20° C.; for 1 h
Protocol: The feasibility to use the TCO group as a protective group in chemistry was studied by testing the stability of a range of TCO derivatives as model compounds under various conditions, and following the deprotection upon reaction with a tetrazine derivative under these conditions. Typical Example for Testing the Stability of a TCO Compound The TCO stock solution (10 μL 25 mM; 2.5*10^−7 mol) was added to a solution of the specific condition (100 μL). […]
parameter: Stability of TCO

O=C(OC1/C=C/CCCCC1)c1ccc([N+](=O)[O-])cc1 (stereo not drawn) [drawing 116]	stable
O=C(Oc1ccc([N+](=O)[O-])cc1)OC1/C=C/CCCCC1 (stereo not drawn)	stable
